Data origin: PubChem BioAssay AID1035

Test: HDAC Secondary Assay for qHTS Assay for Epigenetic Modulators
Conditions: HeLa nuclear extract HDAC activity, fluorogenic substrate, 20 min; at 48 µM; active compounds read low
Calls of active or inactive are those of the source. No rule for the calls is given here.
reported metric: remaining HDAC activity

# annotated cases, reported remaining HDAC activity shown
CCN1CSC(=S)N(CC)C1: 103% (inactive)
O=C(CSc1cccc2cccnc12)N1CCCC1: 120% (inactive)
CN(C)C(=O)CSc1cccc2cccnc12: 111% (inactive)

Name the reported remaining HDAC activity value associated with the compound CC(C)C(=O)NC(c1ccco1)c1ccc2cccnc2c1O (stereo not given)
108% (inactive)

Here is the next compound: `CCN(CC)c1ccc2cc(-c3nc4ccccc4[nH]3)c(=O)oc2c1`
112% (inactive)
